# Experiment notes: Permeability of compound at pH 5.0 by PAMPA assay
# Format: physicochemical
# Assay setup: read-out: permeability
Items are presented alongside their recorded Papp.
// return numeric value only (unit: ×10⁻⁶ cm/s, not printed)

Solved entries (count: 5):
Mol	Papp / ×10⁻⁶ cm/s
CCNC(=O)C1=Cc2ccccc2S(=O)(=O)N1C	5.9
CN1C(C(=O)NC2CC2)=C(Cl)c2ccccc2S1(=O)=O	12
CN1C(C(=O)NC2CC2)=Cc2ccccc2S1(=O)=O	5.9
CC1=C(C(=O)NC2CC2)N(C)S(=O)(=O)c2ccccc21	12
CN1C(C(=O)NC2CC2)=C(C2CC2)c2ccccc2S1(=O)=O	12

## Input # get_value(readout='Papp', item= CNC(=O)C1=Cc2ccccc2S(=O)(=O)N1C )
## Output 5.9

## Input Similarly, CCCNC(=O)C1=Cc2ccccc2S(=O)(=O)N1C ?
## Output 5.9

* * *

# Experiment notes: Permeability of compound at pH 7.4 by PAMPA assay
# Type: physicochemical
# Assay setup: read-out: permeability
Items are presented alongside their recorded Papp.
// return numeric value only (unit: ×10⁻⁶ cm/s, not printed)

Solved entries (count: 6):
Mol	Papp, ×10⁻⁶ cm/s
CNC(=O)C1=Cc2ccccc2S(=O)(=O)N1C	5.9
CCNC(=O)C1=Cc2ccccc2S(=O)(=O)N1C	5.9
CN1C(C(=O)NC2CC2)=Cc2ccccc2S1(=O)=O	5.9
CC1=C(C(=O)NC2CC2)N(C)S(=O)(=O)c2ccccc21	12
CCCNC(=O)C1=Cc2ccccc2S(=O)(=O)N1C	5.9
CN1C(C(=O)NC2CC2)=C(C2CC2)c2ccccc2S1(=O)=O	12

Please examine the following record next.
## Input # get_value(readout='Papp', item= CN1C(C(=O)NC2CC2)=C(Cl)c2ccccc2S1(=O)=O )
## Output 12
